Target: human GPR119 receptor (Homo sapiens, UniProt Q8TDV5, S329A/T327A)
Construct: N-terminal leader […]; expressed in transfected cells
Assay: cAMP assay (LANCE cAMP-384) in HEK293 cells stably expressing mutant human GPR119 receptor
Format: cell-based
Conditions: the 19th table; unit inferred; read-out: EC 50
outcome measure: EC50 (nM)
Answers are plain numbers, in nM.

Record excerpt, results attached:
CCc1cnc(N2CCC(ON=C3CCN(c4cc(F)c(C(=O)NCC5CCNC5)cc4F)CC3)CC2)nc1 (stereo not shown) [Example 29-90] | 67
CCc1cnc(N2CCC(ON=C3CCN(c4cc(F)c(C(=O)N5CCC(CNC)CC5)cc4F)CC3)CC2)nc1 | 206
CCc1cnc(N2CCC(ON=C3CCN(c4cc(F)c(C(=O)N5CCCCC5CN)cc4F)CC3)CC2)nc1 (stereo not shown) | 64

Give EC50 for each listed item.
1. CCc1cnc(N2CCC(ON=C3CCN(c4cc(F)c(C(=O)N5CCC(CN)CC5)cc4F)CC3)CC2)nc1
2. CCc1cnc(N2CCC(ON=C3CCN(c4cc(F)c(C(=O)NCC5COCCN5)cc4F)CC3)CC2)nc1 (stereo not shown)
3. CCc1cnc(N2CCC(ON=C3CCN(c4cc(F)c(C(=O)NCC5CNCCO5)cc4F)CC3)CC2)nc1 (stereo not shown)

1: 168; 2: 128; 3: 26

Hi team, please reply with EC50 for each item in this list.
1. CCc1cnc(N2CCC(ON=C3CCN(c4cc(F)c(C(=O)N5CC[C@@H](N)C5)cc4F)CC3)CC2)nc1
2. CCc1cnc(N2CCC(ON=C3CCN(c4cc(F)c(C(=O)NCC[C@H](N)C(=O)O)cc4F)CC3)CC2)nc1

1. 201
2. 745

* * *

Could you please report measured pEC50 for the items listed next?
Target: human GPR119 receptor (Homo sapiens, UniProt Q8TDV5, S329A/T327A)
Construct: N-terminal leader […]; expressed in transfected cells
Sequence (Q8TDV5 with tags, fused parts or gaps T327A/S329A): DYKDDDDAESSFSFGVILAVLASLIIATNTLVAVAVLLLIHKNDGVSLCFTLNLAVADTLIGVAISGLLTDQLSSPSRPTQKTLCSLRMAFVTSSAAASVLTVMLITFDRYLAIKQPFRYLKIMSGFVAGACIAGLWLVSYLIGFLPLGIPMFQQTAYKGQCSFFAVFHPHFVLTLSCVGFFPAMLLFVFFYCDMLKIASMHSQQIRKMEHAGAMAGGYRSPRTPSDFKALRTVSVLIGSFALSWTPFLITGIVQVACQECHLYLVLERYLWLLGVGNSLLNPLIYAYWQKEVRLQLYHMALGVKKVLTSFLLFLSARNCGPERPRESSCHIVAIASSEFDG
Assay: cAMP assay (LANCE cAMP-384) in HEK293 cells stably expressing mutant human GPR119 receptor
Assay type: cell-based
Conditions: cAMP accumulation, HEK293 cells stably expressing mutant human GPR119; read-out: EC50
Numbers only, as −log10 of the molar value.

Recorded results for 3 compounds are shown here.
Cc1cc(N2CCC(=NOC3CCN(C(=O)OC(C)C)CC3)CC2)ccn1 | 5.83
CC(C)OC(=O)N1CCC(ON=C2CCN(c3cc(F)c(CNS(=O)(=O)C(C)C)cc3F)CC2)CC1 | 6.85
CC(C)OC(=O)N1CCC(ON=C2CCN(c3cc(F)c(COC(=O)[C@@H](NC(=O)OC(C)(C)C)C(C)C)cc3F)CC2)CC1 | 6.03

Please examine the following record next.
Quick one: give measured pEC50 for `CC(C)OC(=O)N1CCC(ON=C2CCN(c3cc(F)c(NC(=N)N)cc3F)CC2)CC1`
5.88
